- EXPERIMENTAL DETAILS: Aqueous solubility of the compound
- Type: physicochemical
RESULT TYPE: solubility

Give recorded solubility. N#Cc1c(=O)[nH]c(OCc2ccccc2Cl)c2cc(F)ccc12
2 µg/mL

Give recorded solubility. N#Cc1c(O)nc(SCc2ccccc2Cl)c2c1CCCC2
6 µg/mL

Give recorded solubility. N#Cc1c(O)nc(SCc2ccccc2Cl)c2cc(F)ccc12
1 µg/mL

Give recorded solubility. N#Cc1c(O)nc(SCc2ccccc2Cl)c2ccccc12
1 µg/mL

Give recorded solubility. N#Cc1ccc(-c2c(O)nc(SCc3ccccc3Cl)c3c2CCCC3)cc1
1 µg/mL

Give recorded solubility. N#Cc1c(O)nc(SCCc2ccccc2Cl)c2c1CCCC2
1 µg/mL

Give recorded solubility. N#Cc1ccc2c(C#N)c(O)nc(SCc3ccccc3Cl)c2c1
8 µg/mL

Give recorded solubility. N#Cc1ncccc1CSc1nc(O)c(C#N)c2c1COCC2
238 µg/mL

Give recorded solubility. N#Cc1c(O)nc(SCc2cccc(Cl)c2)c2c1CCCC2
1 µg/mL

Give recorded solubility. N#Cc1c(O)nc(Sc2ccccc2Cl)c2c1CCCC2
1 µg/mL

Give recorded solubility. N#Cc1c2c(c(SCc3c(Cl)cccc3Cl)[nH]c1=O)CCCC2
1 µg/mL

Give recorded solubility. N#Cc1ncccc1CSc1nc(O)c(C#N)c2c1CCCC2
38 µg/mL

----------
- TESTED SYSTEM: 11-beta-hydroxysteroid dehydrogenase 1 (Mus musculus, UniProt P50172)
- Sequence (P50172 whole entry): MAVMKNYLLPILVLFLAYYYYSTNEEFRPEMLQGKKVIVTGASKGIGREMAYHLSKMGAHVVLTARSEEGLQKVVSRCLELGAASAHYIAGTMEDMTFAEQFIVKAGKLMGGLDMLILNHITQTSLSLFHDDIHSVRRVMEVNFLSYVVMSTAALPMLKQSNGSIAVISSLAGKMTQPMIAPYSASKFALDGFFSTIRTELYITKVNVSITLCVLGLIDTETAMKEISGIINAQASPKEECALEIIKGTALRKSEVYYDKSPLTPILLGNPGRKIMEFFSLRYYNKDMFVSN
- EXPERIMENTAL DETAILS: Inhibition of mouse 11beta-HSD1
pIC50: −log10 of the molar value.
Is pIC50 at least 7? Then 1. If not, 0.

Hello, I need to know if N#Cc1c(O)nc(SCc2ccccc2)c2c1-c1ccccc1CC2 has measured pIC50 not below 7. Thanks!
1

Hello, I need to know if N#Cc1c(O)nc(SCc2cccc(Cl)c2)c2c1CCCC2 has measured pIC50 not below 7. Thanks!
1

Hello, I need to know if N#Cc1ccccc1CSc1nc(O)c(C#N)c2c1CCCC2 has measured pIC50 not below 7. Thanks!
1

Hello, I need to know if N#Cc1ncccc1CSc1nc(O)c(C#N)c2c1CCCC2 has measured pIC50 not below 7. Thanks!
1

Hello, I need to know if Oc1nc(SCc2ccccc2Cl)c2c(c1Br)CCCC2 has measured pIC50 not below 7. Thanks!
0

Hello, I need to know if N#Cc1c(O)nc(SCc2ccccc2)c2c1CCCC2 has measured pIC50 not below 7. Thanks!
1

----------
- TESTED SYSTEM: 11-beta-hydroxysteroid dehydrogenase 1 (Homo sapiens)
- Sequence (P28845 whole entry): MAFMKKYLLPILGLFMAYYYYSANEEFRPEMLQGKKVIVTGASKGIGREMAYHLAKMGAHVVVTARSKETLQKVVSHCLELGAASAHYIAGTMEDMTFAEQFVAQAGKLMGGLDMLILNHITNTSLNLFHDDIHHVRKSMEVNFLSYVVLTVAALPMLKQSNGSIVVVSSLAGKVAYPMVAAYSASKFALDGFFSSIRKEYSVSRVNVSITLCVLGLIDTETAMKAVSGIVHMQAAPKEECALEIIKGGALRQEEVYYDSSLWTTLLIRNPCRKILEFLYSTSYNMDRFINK
- EXPERIMENTAL DETAILS: Inhibition of human 11beta-HSD1 expressed in HEK293 cells assessed as conversion of [3H]-cortisone to [3H]-cortisol by scintillation plate reader
- Assay type: cell-based
RESULT TYPE: IC50 (nM)
Use nM as the unit, but write only the number.

Lab note: record IC50 of N#Cc1c(O)nc(SCc2ccccc2Cl)nc1-c1ccccc1 tested on 11-beta-hydroxysteroid dehydrogenase 1 (Homo sapiens).
27

Lab note: record IC50 of N#Cc1c(O)nc(SCc2ccccc2)c2c1-c1ccccc1CC2 tested on 11-beta-hydroxysteroid dehydrogenase 1 (Homo sapiens).
5

----------
- Tested on: Liver microsomes
- CONDITIONS: human, 10 min, 300 µM
- Description: Metabolic stability of the compound in human liver microsomes assessed as stability rate per mg of protein at 300 uM after 10 mins by LC-MS/MS analysis in presence of NADPH
Is Stability at least 0.05 nmol/min? Then 1 (yes). If not, 0 (no).

Hello, I need to know if N#Cc1c(O)nc(SCc2ccccc2Cl)c2c1CCN(Cc1ccccc1)C2 has measured Stability not below 0.05 nmol/min. Thanks!
1 (yes)

Hello, I need to know if N#Cc1c(O)nc(S(=O)(=O)Cc2ccccc2Cl)c2c1CCCC2 has measured Stability not below 0.05 nmol/min. Thanks!
1 (yes)

Hello, I need to know if N#Cc1ncccc1CSc1nc(O)c(C#N)c2c1COCC2 has measured Stability not below 0.05 nmol/min. Thanks!
0 (no)

Hello, I need to know if N#Cc1c(O)nc(SCc2ccc(Cl)cc2)c2c1CCCC2 has measured Stability not below 0.05 nmol/min. Thanks!
1 (yes)

Hello, I need to know if N#Cc1c(O)nc(SCc2ccccc2Cl)c2ccccc12 has measured Stability not below 0.05 nmol/min. Thanks!
1 (yes)

Hello, I need to know if N#Cc1ccc(F)c(CSc2nc(O)c(C#N)c3c2CCCC3)c1 has measured Stability not below 0.05 nmol/min. Thanks!
0 (no)

Hello, I need to know if N#Cc1c(O)nc(SCCc2ccccc2Cl)c2c1CCCC2 has measured Stability not below 0.05 nmol/min. Thanks!
1 (yes)

Hello, I need to know if CS(=O)(=O)c1ccccc1CSc1nc(O)c(C#N)c2c1CCCC2 has measured Stability not below 0.05 nmol/min. Thanks!
0 (no)

Hello, I need to know if N#Cc1c(O)nc(SCc2ccccc2)c2c1-c1ccccc1CC2 has measured Stability not below 0.05 nmol/min. Thanks!
0 (no)

Hello, I need to know if N#Cc1ccc(-c2c(O)nc(SCc3ccccc3Cl)c3c2CCCC3)cc1 has measured Stability not below 0.05 nmol/min. Thanks!
1 (yes)
